PROTOCOL: Determination of partition coefficients (octanol / phosphate buffer pH 7.4)
Type: physicochemical
REPORTED CONDITIONS: octanol/phosphate buffer pH 7.4, pH 7.4; average over all amounts and samples; read-out: average partition coefficient

>  <SMILES>
CC1(C)CCC2=C(O1)c1ccccc1C(=O)C2=O

>  <logD>
2.3

$$$$
